# Tested on: HEK-293T
# run-description: Multiplex assay against HEK293T
# Type: toxicity, cell-based
# reported-conditions: human, 24 h, 1 µM, compound concentration 1 uM, replicate 1
# reported Population Membrane Permeable-Phenotype (%); entries follow
recorded-endpoint: Population Membrane Permeable-Phenotype (%)

cpd-smiles	measurement-target	result-unit	reading
CCCSc1nc(N[C@@H]2C[C@H]2c2ccc(F)c(F)c2)c2nnn([C@@H]3C[C@H](OCCO)[C@@H](O)[C@H]3O)c2n1	HEK-293T	%	2
CNC(=O)c1ccc(Nc2ncc(C(F)(F)F)c(NCc3nccnc3N(C)S(C)(=O)=O)n2)cc1	HEK-293T	%	6
C=CC(=O)Nc1cccc(Sc2nc(Nc3ccc(N4CCN(C)CC4)cc3)ncc2Cl)c1	HEK-293T	%	18
C[C@]12CC[C@@H]3c4ccc(O)cc4CC[C@H]3[C@@H]1CC[C@@H]2O	HEK-293T	%	1
CC(C)(C)NC[C@H](O)COc1nsnc1N1CCOCC1	HEK-293T	%	1
C=CC(=O)Nc1cccc(Oc2nc(Nc3ccc(N4CCN(C)CC4)cc3OC)ncc2Cl)c1	HEK-293T	%	10
